assay.info: Cytotoxicity against human PBMC assessed as inhibition of cell viability at 0.25 mg/ml after 72 hrs by MTT assay
Assay type: cell-based
study.conditions: PBMC (peripheral blood mononuclear cells), read-out: INH
assay.metric: cytotoxicity at 72 h, 0.25 mg/ml

Any idea what its cytotoxicity at 72 h, 0.25 mg/ml is? The molecule is CC(=O)N[C@H]1[C@@H](OCc2ccccc2)O[C@H](CO)[C@@H](O)[C@@H]1O[C@H](C)C(=O)N[C@@H](C(=O)N[C@H](CCC(=O)O)C(N)=O)C(C)C
< 50%

----------
Field: EC50. Provide a value for each of the compounds that follow.
Tested on: L1210
assay.info: Antitumor activity against mouse L1210 cells assessed as inhibition of [3H]thymidine incorporation after 72 hrs
Type: functional, cell-based
Reply with just the number (in µM).

# get_value(readout= EC50, system= L1210) for CC(=O)N[C@H]1[C@@H](OCc2ccccc2)O[C@H](CO)[C@@H](O)[C@@H]1O[C@H](C)C(=O)N[C@H](CO)C(=O)N[C@H](CCC(=O)NCCNc1ncnc2c1ncn2[C@@H]1O[C@H](CO)[C@@H](O)[C@H]1O)C(N)=O
497

# get_value(readout= EC50, system= L1210) for CC(=O)N[C@H]1[C@@H](OCc2ccccc2)O[C@H](CO)[C@@H](O)[C@@H]1O[C@H](C)C(=O)N1CCC[C@@H]1C(=O)N[C@H](CCC(=O)NCCNc1ncnc2c1ncn2[C@@H]1O[C@H](CO)[C@@H](O)[C@H]1O)C(N)=O
507

# get_value(readout= EC50, system= L1210) for CC(=O)N[C@H]1[C@@H](OCc2ccccc2)O[C@H](CO)[C@@H](O)[C@@H]1OCC(=O)N[C@@H](C(=O)N[C@H](CCC(=O)O)C(N)=O)C(C)C
193

Data provenance is ChEMBL document CHEMBL3351506.
